# Run Description: Metabolic stability in mouse liver microsome assessed as half life incubated for 120 mins by HPLC-MS/MS
# Type: ADME
# Run Parameters: liver microsomes
The entries below are paired with their reported half-life.
The response must be a number in min with no trailing unit.

Q) I would be grateful if you could share the reported half-life for COc1ccc(F)c(C(=O)Nc2cncc(-c3cc(-c4cccnc4)cs3)c2)c1 .
A) 14

Q) I would be grateful if you could share the reported half-life for COc1ccc(F)c(C(=O)Nc2cncc(-c3cc(-c4cccnc4)cs3)c2)c1Cl .
A) 10

Q) I would be grateful if you could share the reported half-life for COc1ccc(F)c(C(=O)Nc2cncc(-c3cccs3)c2)c1 .
A) 11
